- ASSAY_NAME: Cmax in rat after 3mg/kg oral dose
- Type: ADME, organism-based
- Parameters: dose 3 mg/kg, route oral
- EXPERIMENTAL_SETUP: in vivo
ASSAY_ENDPOINT: Cmax

Exercise: For the molecule `COc1ccc(C(=O)Nc2c(Cl)c[n+]([O-])cc2Cl)c2ccc(C(F)(F)F)nc12` , what Cmax is on record?
Key: 3060 ng/mL

----------
- TEST_SYSTEM: Phosphodiesterase 4 (Rattus norvegicus, UniProt P14270+P14646+P14644+P54748)
- ASSAY_NAME: Inhibition of rolipram binding to PDE4 of rat brain
Field 'label' (enum: t / f). Set to t when IC50 is strictly under 200 nM; else f.

1. COc1ccc(C(=O)Nc2c(Cl)c[n+]([O-])cc2Cl)c2ccc(C(F)(F)F)nc12	t
2. COc1ccc(C(=O)Nc2c(F)cncc2F)c2ccc(C(F)(F)F)nc12	t

Exercise: Please state whether IC50 is below 200 nM for `COc1ccc(C(=O)Nc2cc[n+]([O-])cc2Cl)c2ccc(C(F)(F)F)nc12`
Key: f

----------
- TEST_SYSTEM: Phosphodiesterase 4 (Homo sapiens, UniProt P27815+Q08499+Q07343+Q08493)
- ASSAY_NAME: Inhibition of Phosphodiesterase 4 from human U937 cells
- Assay type: cell-based
- EXPERIMENTAL_SETUP: u-937
ASSAY_ENDPOINT: log10(IC50) (log10 of the value in nM)
All values: log10 IC50 [nM].

Past entries and their recorded results:
1. COc1ccc(C(=O)Nc2c(Cl)c[n+]([O-])cc2Cl)c2ccc(C(F)(F)F)nc12	1.78
2. COc1ccc(C(=O)Nc2c(C)cncc2C)c2ccc(C(F)(F)F)nc12	2.08
3. COc1ccc(C(=O)Nc2ccncc2Cl)c2ccc(C(F)(F)F)nc12	3.05
4. COc1ccc(C(=O)Nc2c(C)c[n+]([O-])cc2C)c2ccc(C(F)(F)F)nc12	2.18
5. COc1ccc(C(=O)Nc2c(F)c[n+]([O-])cc2F)c2ccc(C(F)(F)F)nc12	1.85

// input: 2 molecules below; output: log10(IC50) for each
1. COc1ccc(C(=O)Nc2c(F)cncc2F)c2ccc(C(F)(F)F)nc12
2. COc1ccc(C(=O)Nc2cc[n+]([O-])cc2Cl)c2ccc(C(F)(F)F)nc12

Key:
1. 1.54
2. 2.38

----------
- TEST_SYSTEM: Phosphodiesterase 4 (Homo sapiens, UniProt P27815+Q08499+Q07343+Q08493)
- ASSAY_NAME: Relative inhibition of phosphodiesterase 4 and rolipram binding
- Type: protein assay
Kindly state Ratio for each of the entries shown.
One number for each entry.

Past entries and their recorded results:
1) COc1ccc(C(=O)Nc2ccncc2Cl)c2ccc(C(F)(F)F)nc12	10
2) COc1ccc(C(=O)Nc2c(F)cncc2F)c2ccc(C(F)(F)F)nc12	0.94
3) COc1ccc(C(=O)Nc2c(Cl)c[n+]([O-])cc2Cl)c2ccc(C(F)(F)F)nc12	0.4
4) COc1ccc(C(=O)Nc2c(F)c[n+]([O-])cc2F)c2ccc(C(F)(F)F)nc12	1.17
5) COc1ccc(C(=O)Nc2cc[n+]([O-])cc2Cl)c2ccc(C(F)(F)F)nc12	0.65
6) COc1ccc(C(=O)Nc2c(Cl)cncc2Cl)c2ccc(C(F)(F)F)nc12	0.66

// input: 2 compounds below; output: Ratio for each
1. COc1ccc(C(=O)Nc2c(C)c[n+]([O-])cc2C)c2ccc(C(F)(F)F)nc12
2. COc1ccc(C(=O)Nc2c(C)cncc2C)c2ccc(C(F)(F)F)nc12

Key:
1: 0.39; 2: 2.1
